Biological target: RAR α (Homo sapiens)
Sequence (P10276 1-462): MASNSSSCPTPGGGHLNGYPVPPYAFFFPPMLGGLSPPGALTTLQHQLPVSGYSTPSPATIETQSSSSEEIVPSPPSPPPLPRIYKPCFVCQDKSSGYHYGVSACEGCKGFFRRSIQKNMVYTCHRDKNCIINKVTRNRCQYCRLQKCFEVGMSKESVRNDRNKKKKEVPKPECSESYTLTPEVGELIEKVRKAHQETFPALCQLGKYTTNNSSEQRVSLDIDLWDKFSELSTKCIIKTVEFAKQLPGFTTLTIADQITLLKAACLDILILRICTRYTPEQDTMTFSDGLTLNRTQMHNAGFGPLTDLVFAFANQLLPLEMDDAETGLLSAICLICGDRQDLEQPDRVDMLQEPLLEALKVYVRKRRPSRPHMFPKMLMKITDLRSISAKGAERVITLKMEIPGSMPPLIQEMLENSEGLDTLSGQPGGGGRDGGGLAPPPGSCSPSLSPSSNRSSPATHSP
Assay: RAR α EC50/(efficacy)
Assay type: cell-based
Settings: value in brackets of cell EC50/(EFFICACY)/Kd
propertyName: RAR α (EFFICACY)

The examples below pair each entry with its known result.
[
  {
    "compound": "C=Cc1c(C)c(C#Cc2ccc(CC(=O)O)cc2)cc(C(C)(C)C)c1OC(C)C [Compound 46]",
    "RAR α (EFFICACY)": 67
  },
  {
    "compound": "CC(C)OC(=O)c1ccc(C#Cc2ccc(CC(=O)O)cc2)cc1CN(C)C1CC1 [Compound 38]",
    "RAR α (EFFICACY)": 10
  },
  {
    "compound": "CN(c1cccc(C#Cc2ccc(/C=C/C(=O)O)cc2)c1)C1CC1 [Compound 37]",
    "RAR α (EFFICACY)": 10
  }
]

P = C#Cc1c(C)c(C#Cc2ccc(CC(=O)O)cc2)cc(C(C)(C)C)c1OC(C)C [Compound 45]
Q = C#CCc1c(C)c(C#Cc2ccc(CC(=O)O)cc2)cc(C(C)(C)C)c1OC(C)C [Compound 47]
Quick check, higher RAR α (EFFICACY) between P and Q ? Choose, then provide that item's label.
P
(P: 52, Q: 10)

----------
Molecular target: CYP26B (P450RAI-2) (Homo sapiens)
Construct: expressed in transfected cells; host or cells: HeLa
Sequence (Q9NR63 whole entry): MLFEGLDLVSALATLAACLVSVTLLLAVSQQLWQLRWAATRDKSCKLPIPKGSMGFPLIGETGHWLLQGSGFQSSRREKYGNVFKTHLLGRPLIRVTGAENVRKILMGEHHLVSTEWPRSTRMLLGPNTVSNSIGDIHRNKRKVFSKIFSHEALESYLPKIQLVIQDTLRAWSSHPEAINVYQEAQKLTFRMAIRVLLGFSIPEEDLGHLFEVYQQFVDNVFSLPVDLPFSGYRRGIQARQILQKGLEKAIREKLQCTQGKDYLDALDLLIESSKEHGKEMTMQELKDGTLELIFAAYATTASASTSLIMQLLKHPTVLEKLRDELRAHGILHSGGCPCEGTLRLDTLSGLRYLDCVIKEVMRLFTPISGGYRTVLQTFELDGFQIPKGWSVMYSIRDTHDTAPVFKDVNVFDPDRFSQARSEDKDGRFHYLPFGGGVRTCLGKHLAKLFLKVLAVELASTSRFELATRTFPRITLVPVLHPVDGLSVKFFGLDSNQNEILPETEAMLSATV
Experiment: Cell-based inhibition of RA metabolism in CYP26B stably transfected HeLa cells
Conditions: stably transfected HeLa cells, [3H]-RA, 3 hours at 37° C.; read-out: P450RAI-2 Whole cell IC50
propertyName: IC50 (µM)

The examples below pair each entry with its known result.
[
  {
    "molecule": "CCOC(=O)C1=CCC(C)(C)c2cc(C#Cc3ccc(CC(=O)O)c(F)c3)ccc21",
    "propertyName": "IC50",
    "unitAbbrev": "µM",
    "reportedResult": 2.6
  },
  {
    "molecule": "C/C(=C\\c1ccc(C#Cc2cccc(CN(C)C3CC3)c2)cc1)C(=O)O",
    "propertyName": "IC50",
    "unitAbbrev": "µM",
    "reportedResult": 1
  },
  {
    "molecule": "Cc1ccc(C(C)(C)C)cc1C#Cc1ccc(/C=C/C(=O)O)cc1",
    "propertyName": "IC50",
    "unitAbbrev": "µM",
    "reportedResult": 0.4
  },
  {
    "molecule": "Cc1ccc(CN(C)C2CC2)cc1C#Cc1ccc(/C=C/C(=O)O)cc1",
    "propertyName": "IC50",
    "unitAbbrev": "µM",
    "reportedResult": 0.12
  },
  {
    "molecule": "CC1(C)CC2(CC2)Oc2c(C3CC3)cc(NC(=O)Nc3ccc(C(=O)O)cc3)cc21",
    "propertyName": "IC50",
    "unitAbbrev": "µM",
    "reportedResult": 0.45
  },
  {
    "molecule": "CC1(C)CC(C)(C)c2cc(C#Cc3ccc(CC(=O)O)c(F)c3)cc(O)c2O1",
    "propertyName": "IC50",
    "unitAbbrev": "µM",
    "reportedResult": 0.7
  },
  {
    "molecule": "CC(C(=O)O)c1ccc(C#Cc2cc(C3CC3)c3c(c2)C(C)(C)CC2(CC2)O3)cc1 (stereo not drawn)",
    "propertyName": "IC50",
    "unitAbbrev": "µM",
    "reportedResult": 8
  },
  {
    "molecule": "CN(Cc1cccc(C#Cc2ccc(/C=C/C(=O)O)cc2)c1)C1CC1",
    "propertyName": "IC50",
    "unitAbbrev": "µM",
    "reportedResult": 0.6
  }
]

1 = CN(Cc1cc(C#Cc2ccc(CC(=O)O)cc2)cc2c1OC(C)(C)CC2(C)C)C1CC1
2 = C#Cc1cc(NC(=O)Nc2ccc(C(=O)O)c(F)c2)cc2c1OC(C)(C)CC2(C)C
3 = CC(C)Oc1cc(C#Cc2ccc(CC(=O)O)cc2)cc2c1OC(C)(C)CC2(C)C
Sort entries by IC50 from minimum to maximum value. # the answer lists labels in the order requested
2, 1, 3
(2: 0.68 µM, 1: 4 µM, 3: 8 µM)

a = Cc1cc2c(cc1C#Cc1ccc(C(C)(C)C(=O)O)cc1)C(C)(C)CCC2N(C)C1CC1 (stereo not drawn)
b = CC(C)(C)c1cccc(C#Cc2ccc(/C=C/C(=O)O)cc2)c1
Which has the smaller recorded IC50, a or b ? Choose, then provide that item's label.
b

a = CCOC(=O)c1cc(C#Cc2ccc(CC(=O)O)cc2)cc2c1C(N(C)C1CC1)CCC2(C)C (stereo not drawn)
b = C#CCc1c(C)c(C#Cc2ccc(CC(=O)O)cc2)cc(C(C)(C)C)c1OC(C)C
Quick check, higher IC50 between a and b ? Choose, then provide that item's label.
b
(b: 8.8 µM, a: 5 µM)

----------
Molecular target: RAR β (Homo sapiens)
Sequence (P10826 1-455): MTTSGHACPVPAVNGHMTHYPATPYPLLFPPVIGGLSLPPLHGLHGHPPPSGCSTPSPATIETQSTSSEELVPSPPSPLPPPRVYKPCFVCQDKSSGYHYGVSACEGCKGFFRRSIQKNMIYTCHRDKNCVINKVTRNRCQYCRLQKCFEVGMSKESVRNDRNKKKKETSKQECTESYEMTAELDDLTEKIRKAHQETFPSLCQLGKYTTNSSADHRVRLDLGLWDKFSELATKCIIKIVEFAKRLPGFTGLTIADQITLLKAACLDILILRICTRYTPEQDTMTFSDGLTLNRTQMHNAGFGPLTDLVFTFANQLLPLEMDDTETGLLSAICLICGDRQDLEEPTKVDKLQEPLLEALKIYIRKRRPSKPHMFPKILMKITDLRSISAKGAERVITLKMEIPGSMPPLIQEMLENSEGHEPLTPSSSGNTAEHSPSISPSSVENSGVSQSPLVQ
Experiment: RAR β Kd
Format: binding
Settings: last item of cell EC50/(EFFICACY)/Kd
pKd: −log10 of the molar value.
propertyName: pKd

[
  {
    "compound": "COc1cc(C#Cc2ccc(C(C)C(=O)O)cc2)cc2c1C(N(C)C1CC1)CCC2(C)C (centres unmarked)",
    "pKd": 5.89
  },
  {
    "compound": "CCOC(=O)C1=C(C)CC(C)(C)c2cc(C#Cc3ccc(CC(=O)O)cc3)ccc21",
    "pKd": 5.34
  }
]

P = CC(C)(C)c1cccc(C#Cc2ccc(/C=C/C(=O)O)cc2)c1
Q = Cc1ccc(C(C)(C)C)cc1C#Cc1ccc(/C=C/C(=O)O)cc1
Quick check, higher pKd between P and Q ? Choose, then provide that item's label.
P
(P: 5.68, Q: 5.45)

----------
Molecular target: UniProt:P10826
Test: RAR β EC50/(efficacy)
Details: first item of cell EC50/(EFFICACY)/Kd
pEC50: −log10 of the molar value.
propertyName: pEC50

The examples below pair each entry with its known result.
[
  {
    "testSmiles": "C=Cc1c(C)c(C#Cc2ccc(CC(=O)O)cc2)cc(C(C)(C)C)c1OC(C)C",
    "pEC50": 8.00
  },
  {
    "testSmiles": "CC(C)(C)c1cccc(C#Cc2ccc(/C=C/C(=O)O)cc2)c1",
    "pEC50": 7.80
  },
  {
    "testSmiles": "C#Cc1cc(NC(=O)Nc2ccc(C(=O)O)c(F)c2)cc2c1OC(C)(C)CC2(C)C",
    "pEC50": 6.07
  },
  {
    "testSmiles": "CC1(C)CC2(CC2)Oc2c(C3CC3)cc(NC(=O)Nc3ccc(C(=O)O)cc3)cc21",
    "pEC50": 6.49
  }
]

1 = C#CCc1c(C)c(C#Cc2ccc(CC(=O)O)cc2)cc(C(C)(C)C)c1OC(C)C
2 = C#Cc1c(C)c(C#Cc2ccc(CC(=O)O)cc2)cc(C(C)(C)C)c1OC(C)C
Quick check, higher pEC50 between 1 and 2 ? Choose, then provide that item's label.
2
(2: 7.74, 1: 7.42)

// data source = patent US7468391B2
